Compound | melting point
COc1cc2cc(COC(C)=O)c(COC(C)=O)c(-c3ccncc3)c2cc1OC | 165 to 167 °C
O=C1NCC(c2ccccc2)N1CCCS (stereo not given) | 97 to 99 °C
NNC(=O)CCCCCCCCOC1OC(CO)C(O)C(O)C1O (stereo not given) | 194 °C
CC1=CC(O)C(O)C(C)(C)CC1OC(=O)c1ccccc1 (stereo not given) | 94 to 96 °C
COCCCNS(=O)(=O)Cc1cccc(Nc2cc(-c3ccccc3OC)ncn2)c1 | 149 to 151 °C
BrCOc1cccc(OCc2ccccc2)c1 | 70 to 71 °C
Cc1noc(-c2cccc(CN3C(=O)C4(COc5cc6c(cc54)OCCO6)c4ccccc43)c2)n1 (stereo not given) | 80 to 89 °C
CC(=NC12CC3CC(CC(C3)C1)C2)NC12CC3CC(CC(C3)C1)C2 | 255 to 258 °C
COCCNC(=O)c1ccc(Br)c(C)c1 | 79 to 81 °C
COc1cc(C(=O)CBr)ccc1OCC(F)(F)F | 120 °C
CCN=c1[nH]c2ccccc2c2nc(-c3ccco3)nn12 | 133 to 135 °C
Nc1cnc2ccsc2c1 | 121 to 123 °C
c1ccc(OCCSCc2nnc(-c3ccc(OCCCCN4CCCCCC4)cc3)o2)cc1 | 35 to 38 °C
O=C1CC=CC(C(=O)O)C1 (stereo not given) | 98 to 101 °C
c1ccc(-c2nn3c(c2-c2cccc4nsnc24)CCC3)nc1 | 140 to 142 °C
Cc1cc(C(F)(F)C(F)(F)F)nc(N(C(N)=O)c2ccccc2[N+](=O)[O-])n1 | 156 °C
CS(=O)(=O)c1ccc(C(=O)O)c(Cl)c1CC#N | 169 to 172 °C
CC1CCN(c2ccccc2C(C)C(C(N)=O)c2ccc(C(=O)O)cc2)CC1 (stereo not given) | 173 to 175 °C
CCCCc1nc2ccn(CC#N)c(=O)c2n1Cc1ccc(-c2ccccc2C#N)cc1 | 64 °C
N#Cc1c(Br)[nH]c(-c2ccccc2)c1C#N | 225 to 258 °C
Cc1cccc(N2CCN(CCc3c(C)nc4ccc(Cl)cn4c3=O)CC2)c1 | 119 to 120 °C
N#Cc1nc(N)nc(N)c1-c1ccc(Cl)cc1Cl | 249 °C
CC(C)(Cc1ccc(OCCCC(=O)O)cc1)NCC(O)c1cc(OCc2ccccc2)cc2c1OCC(=O)N2 (stereo not given) | 216 to 218 °C
COC1CN(CCCNc2ncccn2)CCC1NC(=O)C1=CC(Cl)(OC)C(N)C=C1 (stereo not given) | 158 °C
COc1ccc(C(=O)Nc2ccccc2)cc1NCc1ccc(C#N)cc1 | 130 to 133 °C
CC(=O)NCCN1CCCc2ccccc21 | 102 °C
CN1CCC(N(C)S(=O)(=O)c2ccc(Nc3nccc(Nc4ccc(F)cc4)n3)cc2)CC1 | 205 to 210 °C
CNS(=O)(=O)CC(=O)c1cc(OC)ccc1N | 117 to 118 °C
COc1ccc(C=C(C#N)C#N)cc1OC | 108 °C
CCOC(=O)c1cc2cc(OCOC)ccc2s1 | 74 to 75 °C

---

Catalogue of melting point values
Readout: melting point

Compound Structure String | Test Value
O=C(CCl)Oc1ccc(OC(=O)CCl)cc1 | 127 to 128 °C
COC(=O)[C@@H]1CCCN1C(=O)C[C@H]1CCc2ccccc2C1 | 62 to 64 °C
CCc1ccc(-c2ccc(Cl)cc2)cc1 | 103 °C
CN1C(=O)CC[C@]2(C)c3ccc(-c4ncccn4)cc3CC[C@@H]12 | 160 to 162 °C
COc1ccc(Nc2nc(O)nc(NC3CCCCCC3)n2)cc1Cl | > 310 °C
